Ref: paper PMC8269059

Target: heme-dimerized PGRMC1 (Homo sapiens, UniProt O00264)
Construct: human PGRMC1 intracellular domain residues 43-195; GST (N, cleaved yes)
Sequence (O00264 43-195): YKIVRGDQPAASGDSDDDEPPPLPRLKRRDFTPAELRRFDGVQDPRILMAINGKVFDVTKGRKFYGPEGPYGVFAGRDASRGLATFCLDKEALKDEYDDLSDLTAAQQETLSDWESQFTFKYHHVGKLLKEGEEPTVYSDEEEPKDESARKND
Assay: ITC binding to heme-dimerized PGRMC1
Conditions: ITC, 298 K, 50 mM phosphate pH 7.0, heme-dimerized PGRMC1 (WT)
Result type: Kd (µM)

Sample records with Kd:
CC1(C(=O)O)CCC2(C)CCC3(C)C(=CC(=O)C4C5(C)CCC(OC6OC(C(=O)O)C(O)C(O)C6O)C(C)(C)C5CCC43C)C2C1 (stereo not shown) [Glycyrrhetinic acid-3-O-mono-glucuronide]; 9.55
CC1OC(OC2C(OC3C(OC4CCC5(C)C(CCC6(C)C5C(=O)C=C5C7CC(C)(C(=O)O)CCC7(C)CCC56C)C4(C)C)OC(C(=O)O)C(O)C3O)OC(CO)C(O)C2O)C(O)C(O)C1O (stereo not shown) [Rhaoglucoglycyrrhizin]; 1.08
CC1(C(=O)O)CCC2(C)CCC3(C)C(=CC(=O)C4C5(C)CCC(OC6OC(C(=O)O)C(O)C(O)C6OC6OC(CO)C(O)C(O)C6O)C(C)(C)C5CCC43C)C2C1 (stereo not shown) [Glucoglycyrrhizin (GlucoGL), Glucoglycyrrhizin]; 1.38
CC1(C(=O)O)CCC2(C)CCC3(C)C(=CC(=O)C4C5(C)CCC(OC6OC(C(=O)O)C(O)C(O)C6OC6OCC(O)C(O)C6O)C(C)(C)C5CCC43C)C2C1 (stereo not shown) [Araboglycyrrhizin]; 8.46

[I] CC1(C(=O)O)CCC2(C)CCC3(C)C(=CC(=O)C4C5(C)CCC(OC6OC(C(=O)O)C(O)C(O)C6OC6OCC(O)(CO)C6O)C(C)(C)C5CCC43C)C2C1 (stereo not shown) [Apioglycyrrhizin]
[II] CC1(C(=O)O)CCC2(C)CCC3(C)C(=CC(=O)C4C5(C)CCC(OC6OC(C(=O)O)C(O)C(O)C6OC6OC(C(=O)O)C(O)C(O)C6O)C(C)(CO)C5CCC43C)C2C1 (stereo not shown) [Licorice-saponin G2]
INPUT: # min-compare on Kd between I and II Returns: label corresponding to the selected item.
OUTPUT: I

* * *

Molecular target: heme-dimerized PGRMC1 (Homo sapiens, UniProt O00264)
Construct: human PGRMC1 intracellular domain residues 43-195; GST (N, cleaved yes); made in house; host or cells: E. coli BL21 (DE3)
Assay: ITC binding to heme-dimerized PGRMC1
Conditions: ITC, heme-dimerized PGRMC1 (WT)
Result type: ΔH (kcal/mol)

CC1(C)[C@@H](O[C@H]2O[C@H](C(=O)O)[C@@H](O)[C@H](O)[C@H]2O[C@@H]2O[C@H](C(=O)O)[C@@H](O)[C@H](O)[C@H]2O)CC[C@]2(C)[C@H]3C(=O)C=C4[C@@H]5C[C@@](C)(C(=O)O)CC[C@]5(C)CC[C@@]4(C)[C@]3(C)CC[C@@H]12; -1.23
CC1(C(=O)O)CCC2(C)CCC3(C)C(=CC(=O)C4C5(C)CCC(OC6OC(C(=O)O)C(O)C(O)C6OC6OCC(O)C(O)C6O)C(C)(C)C5CCC43C)C2C1 (stereo not shown); -1.03

[1] CC1(C(=O)O)CCC2(C)CCC3(C)C(=CC(=O)C4C5(C)CCC(OC6OC(C(=O)O)C(O)C(O)C6OC6OCC(O)(CO)C6O)C(C)(C)C5CCC43C)C2C1 (stereo not shown)
[2] CC1(C(=O)O)CCC2(C)CCC3(C)C(=CC(=O)C4C5(C)CCC(OC6OC(C(=O)O)C(O)C(O)C6OC6OC(CO)C(O)C(O)C6O)C(C)(C)C5CCC43C)C2C1 (stereo not shown)
INPUT: # min-compare on ΔH between 1 and 2 Returns: label corresponding to the selected item.
OUTPUT: 1
(1: -1.08 kcal/mol, 2: -0.56 kcal/mol)

* * *

Molecular target: heme-dimerized PGRMC1 (Homo sapiens)
Construct: human PGRMC1 intracellular domain residues 43-195; GST (N, cleaved yes); made in house; host or cells: E. coli BL21 (DE3)
Experiment: ITC binding to heme-dimerized PGRMC1
Settings: ITC, heme-dimerized PGRMC1 (WT)
Result type: TΔS (K·kcal/mol)

CC1(C(=O)O)CCC2(C)CCC3(C)C(=CC(=O)C4C5(C)CCC(OC6OC(C(=O)O)C(O)C(O)C6OC6OCC(O)(CO)C6O)C(C)(C)C5CCC43C)C2C1 (stereo not shown); 6.18
CC1(C(=O)O)CCC2(C)CCC3(C)C(=CC(=O)C4C5(C)CCC(OC6OC(C(=O)O)C(O)C(O)C6OC6OC(CO)C(O)C(O)C6O)C(C)(C)C5CCC43C)C2C1 (stereo not shown); 7.44
CC1OC(OC2C(OC3C(OC4CCC5(C)C(CCC6(C)C5C(=O)C=C5C7CC(C)(C(=O)O)CCC7(C)CCC56C)C4(C)C)OC(C(=O)O)C(O)C3O)OC(CO)C(O)C2O)C(O)C(O)C1O (stereo not shown); 6.08
CC1(C)[C@@H](O[C@H]2O[C@H](C(=O)O)[C@@H](O)[C@H](O)[C@H]2O[C@@H]2O[C@H](C(=O)O)[C@@H](O)[C@H](O)[C@H]2O)CC[C@]2(C)[C@H]3C(=O)C=C4[C@@H]5C[C@@](C)(C(=O)O)CC[C@]5(C)CC[C@@]4(C)[C@]3(C)CC[C@@H]12; 4.61
CC1(C(=O)O)CCC2(C)CCC3(C)C(=CC(=O)C4C5(C)CCC(OC6OC(C(=O)O)C(O)C(O)C6OC6OCC(O)C(O)C6O)C(C)(C)C5CCC43C)C2C1 (stereo not shown); 5.90

[I] CC1(C(=O)O)CCC2(C)CCC3(C)C(=CC(=O)C4C5(C)CCC(OC6OC(C(=O)O)C(O)C(O)C6O)C(C)(C)C5CCC43C)C2C1 (stereo not shown) [Glycyrrhetinic acid-3-O-mono-glucuronide]
[II] CC1(C(=O)O)CCC2(C)CCC3(C)C(=CC(=O)C4C5(C)CCC(OC6OC(C(=O)O)C(O)C(O)C6OC6OC(C(=O)O)C(O)C(O)C6O)C(C)(CO)C5CCC43C)C2C1 (stereo not shown)
INPUT: TΔS comparison. Which is larger, I or II ? Returns: label corresponding to the selected item.
OUTPUT: I

* * *

Target: heme-dimerized PGRMC1 (Homo sapiens)
Construct: human PGRMC1 intracellular domain residues 43-195; GST (N, cleaved yes); made in house; host or cells: E. coli BL21 (DE3)
Experiment: ITC binding to heme-dimerized PGRMC1
Conditions: ITC, heme-dimerized PGRMC1 (WT)
Result type: ΔH (kcal/mol)

CC1(C(=O)O)CCC2(C)CCC3(C)C(=CC(=O)C4C5(C)CCC(OC6OC(C(=O)O)C(O)C(O)C6OC6OC(C(=O)O)C(O)C(O)C6O)C(C)(CO)C5CCC43C)C2C1 (stereo not shown); -1.23
CC1(C(=O)O)CCC2(C)CCC3(C)C(=CC(=O)C4C5(C)CCC(OC6OC(C(=O)O)C(O)C(O)C6O)C(C)(C)C5CCC43C)C2C1 (stereo not shown) [Glycyrrhetinic acid-3-O-mono-glucuronide]; -0.62

[1] CC1OC(OC2C(OC3C(OC4CCC5(C)C(CCC6(C)C5C(=O)C=C5C7CC(C)(C(=O)O)CCC7(C)CCC56C)C4(C)C)OC(C(=O)O)C(O)C3O)OC(CO)C(O)C2O)C(O)C(O)C1O (stereo not shown)
[2] CC(=O)[C@H]1CC[C@H]2[C@@H]3CCC4=CC(=O)CC[C@]4(C)[C@H]3CC[C@]12C
INPUT: # min-compare on ΔH between 1 and 2 Returns: label corresponding to the selected item.
OUTPUT: 2
(2: -23.26 kcal/mol, 1: -2.07 kcal/mol)

* * *

Target: heme-dimerized PGRMC1 (Homo sapiens, UniProt O00264)
Construct: human PGRMC1 intracellular domain residues 43-195; GST (N, cleaved yes); made in house; host or cells: E. coli BL21 (DE3)
Test: ITC binding to heme-dimerized PGRMC1
Conditions: ITC, heme-dimerized PGRMC1 (WT)
Result type: ΔG (kcal/mol)

Sample records with ΔG:
CC1(C(=O)O)CCC2(C)CCC3(C)C(=CC(=O)C4C5(C)CCC(OC6OC(C(=O)O)C(O)C(O)C6OC6OC(C(=O)O)C(O)C(O)C6O)C(C)(CO)C5CCC43C)C2C1 (centres unmarked) [Licorice-saponin G2]; -5.31
CC1(C(=O)O)CCC2(C)CCC3(C)C(=CC(=O)C4C5(C)CCC(OC6OC(C(=O)O)C(O)C(O)C6OC6OCC(O)C(O)C6O)C(C)(C)C5CCC43C)C2C1 (centres unmarked) [Araboglycyrrhizin]; -6.93
CC1(C)[C@@H](O[C@H]2O[C@H](C(=O)O)[C@@H](O)[C@H](O)[C@H]2O[C@@H]2O[C@H](C(=O)O)[C@@H](O)[C@H](O)[C@H]2O)CC[C@]2(C)[C@H]3C(=O)C=C4[C@@H]5C[C@@](C)(C(=O)O)CC[C@]5(C)CC[C@@]4(C)[C@]3(C)CC[C@@H]12 [Glycyrrhizin (GL), Glycyrrhizin]; -5.84
CC1(C(=O)O)CCC2(C)CCC3(C)C(=CC(=O)C4C5(C)CCC(OC6OC(C(=O)O)C(O)C(O)C6O)C(C)(C)C5CCC43C)C2C1 (centres unmarked) [Glycyrrhetinic acid-3-O-mono-glucuronide]; -6.85
CC1(C(=O)O)CCC2(C)CCC3(C)C(=CC(=O)C4C5(C)CCC(OC6OC(C(=O)O)C(O)C(O)C6OC6OC(CO)C(O)C(O)C6O)C(C)(C)C5CCC43C)C2C1 (centres unmarked) [Glucoglycyrrhizin (GlucoGL), Glucoglycyrrhizin]; -8.00

[a] CC1(C(=O)O)CCC2(C)CCC3(C)C(=CC(=O)C4C5(C)CCC(OC6OC(C(=O)O)C(O)C(O)C6OC6OCC(O)(CO)C6O)C(C)(C)C5CCC43C)C2C1 (centres unmarked) [Apioglycyrrhizin]
[b] CC(=O)[C@H]1CC[C@H]2[C@@H]3CCC4=CC(=O)CC[C@]4(C)[C@H]3CC[C@]12C [Progesterone]
INPUT: ΔG comparison. Which is larger, a or b ? Returns: label corresponding to the selected item.
OUTPUT: b
